Listed below: MIC values for each entry.
- System: Staphylococcus epidermidis
- EXPERIMENT DESCRIPTION: Antibacterial activity against Staphylococcus epidermidis RCMB 010024 assessed as growth inhibition after 24 hrs by twofold serial dilution method
- Type: functional
- PARTICULARS: RCMB 010024, 24 h

| COMPOUND | MIC |
| --- | --- |
| CC1(C)S[C@@H]2[C@H](NC(=O)[C@H](N)c3ccccc3)C(=O)N2[C@H]1C(=O)O | 0.48 µg/mL |
| Cc1nc(-c2cccnc2)sc1C1=NNC(c2ccccc2)C1 (stereo not given) | 62.5 µg/mL |
| CC(=O)c1sc(-c2cccnc2)nc1C | 0.24 µg/mL |
| Cc1nc(-c2cccnc2)sc1C(=O)/C=C/c1ccccc1[N+](=O)[O-] | 0.97 µg/mL |
| Cc1nc(-c2cccnc2)sc1C(=O)/C=C/c1ccccc1 | 31.2 µg/mL |
